FYI, the data here is from PubChem BioAssay (NCI).

# Tested on: HOP-92 NSCLC
# Test: NCI-60 one-dose screen, 48 h
# Experimental Conditions: 10 µM unless noted
# Experimental: Growth inhibition of the HOP-92 human Non-Small Cell Lung tumor cell line is measured as a screen for anti-cancer activity. Cells are grown in 96 well plates and exposed to the test compound for 48 hours. Compounds are tested at a single concentration, which is 10^-5 M for most compounds. The reported endpoint is percent growth (GI% or GIPRCNT), where numbers from 0 - 100% represent growth inhibition, and numbers from -100% - 0 represent cell death. […]
Compounds without any hit were thinned out: in the full panel of roughly 83,000, 20% have a hit. Calls of active or inactive are those of the source. Rule for the calls: active = growth percent below 10; inactive = the rest.
Hi there, use one of these labels in your reply, thanks! active, inactive

stdin: Could you check what this test reported for COc1ccccc1NC(=O)C1CC(c2ccc(F)cc2)=NO1 (stereo not drawn) ?
stdout: inactive

stdin: Assay result, entry CN(C)CC(O)c1ccc(/C=C/c2ccc(Cl)cc2)cc1 (stereo not drawn) — outcome?
stdout: inactive

stdin: Lab log entry: COc1cc(C(=O)Nc2cc3c(cc2Oc2cc(C)cc(C)c2)C(=O)N(C)[C@@H](CC(=O)N(C)O)C(=O)N3)c(Br)c(OC)c1OC — outcome as called in the assay?
stdout: active

stdin: Which outcome was entered for the molecule NS(=O)(=O)c1ccc(CCN2C(=O)C3C(C2=O)C2(Cl)C(Cl)=C(Cl)C3(Cl)C2(Cl)Cl)cc1 (stereo not drawn) in this test?
stdout: inactive

stdin: Hi, do you know how C=C1C(=O)O[C@H]2[C@H]1CC/C(COC(=O)NCCc1c[nH]c3ccc(OC)cc13)=C\CC[C@@]1(C)O[C@@H]21 came out in this test?
stdout: active

stdin: So what was the verdict on CCOC(=O)[C@@H](C)C[C@H](Cc1ccccc1)NC(=O)c1csc([C@@H](C[C@H](C(C)C)N(C)C(=O)[C@@H](NC(=O)[C@H]2C[C@H](O[Si](C)(C)C(C)(C)C)CCN2C)C(C)C)OC(C)=O)n1 in this test?
stdout: active

stdin: Look up the recorded call for N#CC1C(C#N)C2c3ccccc3C=CN2C1C(=O)c1ccc(Br)cc1 (stereo not drawn) in this test.
stdout: inactive

stdin: Fill in: this test's call for Fc1ccc2c(-c3cncn3CCc3ccccc3)c[nH]c2c1 is ___
stdout: inactive

stdin: Per the records of this test, what outcome belongs to CCN1C(=O)N(CC)C2Nn3c(s/c(=C\c4ccc(OC)cc4)c3=O)=NC21 (stereo not drawn) ?
stdout: inactive

stdin: Identify the outcome logged in this assay for the molecule shown: COc1ccc2c(c1)oc1c(C)c3c(c(C)c12)C(=O)N(N)C3=O
stdout: inactive

stdin: Which outcome was entered for the molecule CCCCCCCCO/N=C\c1c2c(O)c3c(O)c(C)c4c(c3c1O)C(=O)C(C)(O/C=C\C(OC)C(C)C(OC(C)=O)C(C)C(O)C(C)C(O)C(C)/C=C\C=C(\C)C(=O)N2)O4 (stereo not drawn) in this test?
stdout: active

stdin: Field: outcome | Entry: O=Cc1cc2ccccc2nc1Oc1ccc(C(F)(F)F)cc1
stdout: inactive

stdin: How did this test come out for Cc1nc(N)nc(N[C@@H](C)c2nc3cccc(NCc4ccc(C(=O)NO)cc4)c3c(=O)n2-c2ccccc2)n1 ?
stdout: inactive

stdin: Status in this test for COc1ccc(NC(=O)c2cc(NCc3cc(O)ccc3O)ccc2O)cc1 ?
stdout: inactive

stdin: Hi, sorry to bother you, what did the test record for COc1cc2c(c(O)c1Br)C(=O)c1c(O)cc(C[C@H](C)O)cc1[C@H]2[C@H]1c2cc(C[C@H](C)O)cc(O)c2C(=O)c2c1cc(OC)c(Br)c2O ?
stdout: active

stdin: What did this assay record as the result for O=C1Nc2cc(-c3ccc(NC(=O)C4CC4)cc3)ccc2/C1=C/c1ccc[nH]1 ?
stdout: inactive

stdin: Hi, do you know how C=C1C(=O)O[C@H]2[C@H]1CC/C(CNC(=O)/C=C/c1ccccc1)=C\CC[C@@]1(C)O[C@@H]21 came out in this test?
stdout: active

stdin: Recorded test outcome, item C[C@H](c1nc2ccc(N)cc2[nH]1)[C@H]1CC[C@H]2[C@@H]3CCC4=CC(=O)CC[C@]4(C)[C@H]3CC[C@]12C
stdout: inactive

stdin: What is the recorded call for this molecule in the test? O=C(/C=C/c1c(-c2ccc(Cl)cc2)nn(-c2ccccc2)c1C(F)(F)F)c1ccc(Cl)cc1
stdout: inactive

stdin: Per the assay record, what outcome was assigned to Cc1ccc(S(=O)(=O)Nn2c3c(cc(-c4nc5ccccc5s4)c2=O)CCCCCC3)cc1 ?
stdout: inactive

stdin: For O=C1OC(Cc2ccccc2)C1c1ccccc1 (stereo not drawn) , which call appears in the assay record?
stdout: inactive

stdin: Look up the recorded call for C=C1C(=O)O[C@H]2[C@H]1CC/C(CNC(=O)c1cccc3ccccc13)=C\CC[C@@]1(C)O[C@@H]21 in this test.
stdout: active

stdin: Could you please tell me the result logged for C=C1C(=O)O[C@H]2[C@H]1CC/C(CNS(=O)(=O)c1cccc3ccccc13)=C\CC[C@@]1(C)O[C@@H]21 in this assay?
stdout: inactive

stdin: What did the test return for CC(=O)O[C@@H]1C2CCC3C(CC[C@@]4(C)C3CC[C@@H]4C(C)N(C)C)[C@@]2(C)CC[C@@H]1NC(=O)C=C(C)C (stereo partly drawn) ?
stdout: inactive

stdin: State the result this test recorded for CCNC(=O)Oc1ccc(/C(=C(\C)c2ccccc2)c2ccc(OCCN(CC)CC)cc2)cc1 .
stdout: inactive

stdin: Please indicate how the test categorized O=C(Nc1ccc(Cl)cc1)c1cc(NCc2cc(O)ccc2O)ccc1O .
stdout: inactive

stdin: What did the test return for CCOC(=O)C1=C(CCl)NC(=O)NC1c1ccc2c(c1)OCO2 (stereo not drawn) ?
stdout: inactive

stdin: Outcome logged for COc1ccc(/C=N/NC(=O)c2cnn3c2NC(c2ccccc2)C3)cc1OC (stereo not drawn) in this assay:
stdout: inactive

====

# System: CAKI-1 renal
# Test: NCI-60 one-dose screen, 48 h (100 = growth as untreated, 0 = no growth, -100 = all killed)
# Experimental Conditions: 10 µM unless noted
This is part of a sample that, as a whole, favours compounds with a hit. Of some 83,000 tested, about 20% had one in any assay. Activity calls are given as the source filed them. How the source made its calls: active means growth percent below 10; inactive means the rest.
Property: growth

growth for CAKI-1 renal with input CCCCC[n+]1ccc(SCC(=O)N(C)c2ccc(Oc3ccccc3)cc2)c2ccccc21 equals 93.5% (inactive)

# lookup: Cc1ccc(-n2c3c(c(-c4ccccc4)c2-c2ccccc2)C2=NCCN2C=N3)cc1 on CAKI-1 renal, growth = 72.9% (inactive)

Entry O=C(CCN1CCCC1)Nc1ccc2c(NCCc3ccccc3)c3ccccc3nc2c1 under CAKI-1 renal had growth of 4.47% (active)

====

# System: SF-268 CNS
# Test: NCI-60 one-dose screen, 48 h (100 = growth as untreated, 0 = no growth, -100 = all killed)
# Experimental Conditions: 10 µM unless noted
About 83,000 compounds went through this panel and 20% of them were active in at least one assay; those are over-represented in the sample as a whole. Calls of active or inactive are those of the source. How the source made its calls: active means growth percent below 10; inactive means the rest.
Property: growth

Lab note: COc1cc(C=O)ccc1OC1OC(COC(C)=O)C(OC(C)=O)C(OC(C)=O)C1OC(C)=O (stereo not given) gave growth of 99.2% (inactive)

growth measured on N#Cc1c(-c2cccc([N+](=O)[O-])c2)nc(SCC(=O)c2ccc(Cl)cc2)[nH]c1=O = 97.7% (inactive)

For reference, reported growth for NS(=O)(=O)c1ccc(Cn2c(SCC(=O)N/N=C/c3ccccc3O)nc3ccccc3c2=O)cc1 stands at 38.2% (inactive)

growth recorded for this compound, O=C(/C(=C\c1ccc([N+](=O)[O-])cc1)S(=O)Cc1ccc(F)cc1)c1ccc(F)cc1 (stereo not given) , is 31.5% (inactive)

The compound Nc1n[nH]c2cccc(C#Cc3cccc(C(=O)Nc4cccc(C(F)(F)F)c4)c3)c12 showed growth equal to 56.4% (inactive)

====

# Test system: RPMI-8226 leukemia
# Test: NCI-60 one-dose screen, 48 h
# Experimental Conditions: 10 µM unless noted
This is part of a sample that, as a whole, favours compounds with a hit. Of some 83,000 tested, about 20% had one in any assay. Active and inactive are the calls of the source. Rule for the calls: active = growth percent below 10; inactive = the rest.
One label from this list, please: active, inactive

stdin: Assay result, entry COc1cc2nc(-c3ccc(C(F)(F)F)cc3)cc(OCCN3CCCCC3)c2cc1OC — outcome?
stdout: inactive

stdin: For this compound, state the assay outcome: COC1=CC(=O)c2ccccc2C1=O
stdout: inactive

stdin: Which outcome did this test record for the compound O=C(C[n+]1cccc2ccccc21)c1ccc(O)c(O)c1 ?
stdout: inactive

stdin: Outcome logged for O=[N+]([O-])c1ccc(N=Nc2cc(S(=O)(=O)O)c3cccc(S(=O)(=O)O)c3c2O)cc1 in this assay:
stdout: inactive

stdin: Identify the outcome logged in this assay for the compound shown: N/C(=N\C(N)=N\c1nc2ccccc2s1)c1cnccn1
stdout: inactive

stdin: Write down the call the test reported for this compound. Item: O=S(=O)(NCCCNc1nccc(-c2c(-c3cccc(F)c3)nc3sccn23)n1)c1cccc2ccccc12
stdout: inactive

stdin: Each compound tested received a call. Report the one for COc1ccc(-c2[nH][nH]c(=O)c2-c2nc3ccccc3s2)cc1 .
stdout: inactive

stdin: What classification did COc1cc2cc(CN3CCN(c4nccc(-c5ccc6ccccc6c5)n4)CC3)c(=O)[nH]c2cc1OC end up with in this test?
stdout: inactive

stdin: Hi team, can someone confirm the assay call for Oc1c(Cl)cc(Cl)c(Cl)c1CNCCNCc1c(O)c(Cl)cc(Cl)c1Cl ?
stdout: inactive

stdin: Could you please tell me the result logged for CCC(CC)NCC(C)(C)O in this assay?
stdout: inactive

stdin: Give the logged outcome of this assay for the following compound: C=C1C(=O)O[C@H]2[C@H]1CC/C(CNC(=O)/C=C/c1cccc(OC)c1)=C\CC[C@@]1(C)O[C@@H]21
stdout: active

stdin: Please state the recorded outcome for this compound: Cn1cc(-c2csc(-c3c[nH]c4ccccc34)n2)c2ccnc(Cl)c21
stdout: inactive

stdin: Per the assay record, what outcome was assigned to CC1(C)CC(O)CCCCCCOc2c(CN)cccc2NC(=O)c2nc(cnc2N)-c2ccc(cc2)S1(=O)=O (configuration not stated) ?
stdout: active

stdin: Please let me know the test result on file for CCCN1[C@@H]2CC[C@H]1/C(=C\c1ccc(OC)c(OC)c1)C(=O)/C2=C/c1ccc(OC)c(OC)c1 .
stdout: active

stdin: Tell me the recorded outcome of this test for Cc1ccc(/C=C(/C#N)n2nnc3cccc(F)c32)cc1 .
stdout: active

stdin: How did this test come out for COc1cc(C2=C(c3cn(C)c4ccccc34)COC2=O)cc(OC)c1OC ?
stdout: inactive

stdin: Can you look up the reported call for O=C(NO)c1ccc(-n2nc(-c3ccccc3)c3ccccc32)cc1 for me?
stdout: inactive
